biological target: UniProt:O14684
Counter-ions that a name gives are not always drawn.
experimental endpoint: IC50 (nM)

Worked set:
* Cc1c(Cl)cccc1NC(=O)c1cc(NC(=O)c2ccccc2C(F)(F)F)cc2[nH]c(CN(C)C)nc12 [Example 58, hydrochloride] | 5.4
* Cc1c(Cl)cccc1NC(=O)c1cc(NC(=O)c2ccccc2C(F)(F)F)cc2[nH]c(NCCN3CCOCC3)nc12 [Example 146, hydrochloride] | 3.1
* COCc1nc2c(C(=O)NC3CCC(F)(F)CC3)cc(NC(=O)c3ccccc3C(F)(F)F)cc2[nH]1 [Example 26, hydrochloride] | 172

1 = Cc1c(Cl)cccc1NC(=O)c1cc(NC(=O)c2ccccc2C(F)(F)F)cc2[nH]c(N3CCCCC3)nc12 [Example 142, hydrochloride]
2 = COCC(C)(C)c1nc2c(C(=O)Nc3cccc(Cl)c3C)cc(NC(=O)c3ccccc3C(F)(F)F)cc2[nH]1 [Example 75, hydrochloride]
Name the one with the greater IC50 value, either 1 or 2 as given. API: response body contains the label of the selected item.
2

* * *

Reported pIC50 for target or system UniProt:O14684, by entry.
pIC50: −log10 of the molar value. Structures can show the parent of a compound that is named as a salt.
experimental endpoint: pIC50

Reference set (3 entries):
- O=C(Nc1cc2c(c(C(=O)NC3CCCCC3)c1)OCC2)c1ccccc1C(F)(F)F [Example 7]: 6.98
- COCc1nc2c(C(=O)NCc3ccccc3Cl)cc(NC(=O)c3ccccc3C(F)(F)F)cc2[nH]1 [Example 24, hydrochloride]: 7.98
- Cc1c(Cl)cccc1NC(=O)c1cc(NC(=O)c2ccccc2C(F)(F)F)cc2[nH]c(NCC(=O)OC(C)(C)C)nc12 [Example 160, hydrochloride]: 8.12

A = Cc1c(Cl)cccc1NC(=O)c1cc(NC(=O)c2ccccc2C(F)(F)F)cc2[nH]c(C3CCCO3)nc12 (stereo in doubt) [Example 66, hydrochloride]
B = Cc1c(Cl)cccc1NC(=O)c1cc(NC(=O)c2ccccc2C(F)(F)F)cc2[nH]c(NCC3(C)COC3)nc12 [Example 159, hydrochloride]
C = Cc1c(Cl)cccc1NC(=O)c1cc(NC(=O)c2c(F)cccc2Cl)cc2[nH]c(N(C)C)nc12 [Example 182, hydrochloride]
D = COCc1nc2c(C(=O)Nc3cccs3)cc(NC(=O)c3ccccc3C(F)(F)F)cc2[nH]1 [Example 227, hydrochloride]
Hey, can you sort those molecules up there by pIC50, smallest first? In plain terms: list the labels in the order you were asked to.
B, A, C, D

* * *

target: human mPGES-1 (Homo sapiens (Human))
Where a name gives a salt, the structure may show the parent alone.
experimental endpoint: IC50 (nM)

A = Cc1c(Cl)cccc1NC(=O)c1cc(NC(=O)c2ccc(Cl)cc2Cl)cc2[nH]c(N(C)C)nc12 [Example 184, hydrochloride]
B = CNC(=O)Cc1nc2c(C(=O)Nc3cccc(Cl)c3C)cc(NC(=O)c3ccccc3C(F)(F)F)cc2[nH]1 [Example 134, hydrochloride]
C = COCc1nc2c(C(=O)NCc3ncccc3C(F)(F)F)cc(NC(=O)c3ccccc3C(F)(F)F)cc2[nH]1 [Example 42, dihydrochloride]
Sort key = IC50. Sort direction = ascending. Apply to the list above. Please respond with the labels ordered as the question requires.
A, B, C
(A: 1 nM, B: 10.3 nM, C: 28.5 nM)

* * *

target: human mPGES-1 (Homo sapiens (Human), UniProt O14684)
Sequence (O14684 whole entry): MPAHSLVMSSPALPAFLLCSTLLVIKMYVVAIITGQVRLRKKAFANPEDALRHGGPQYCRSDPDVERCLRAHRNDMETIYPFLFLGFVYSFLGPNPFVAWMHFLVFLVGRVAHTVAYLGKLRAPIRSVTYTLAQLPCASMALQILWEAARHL
pIC50: −log10 of the molar value. Where a name gives a salt, the structure may show the parent alone.
experimental endpoint: pIC50

Worked set:
* CN(C)c1nc2c(C(=O)Nc3ccc(C(C)(C)C)cc3)cc(NC(=O)c3ccccc3C(F)(F)F)cc2[nH]1 [Example 203, hydrochloride] | 8.85
* Cc1c(Cl)cccc1NC(=O)c1cc(NC(=O)c2ccccc2C(F)(F)F)cc2[nH]c([C@H]3CCCO3)nc12 [Example 64, hydrochloride] | 8.64
* Cc1ccc(NC(=O)c2cc(NC(=O)c3cc(Cl)ccc3Cl)cc3[nH]c(C(C)(C)C)nc23)cc1Cl [Example 88, hydrochloride] | 7.82

A = CCOc1nc2c(C(=O)Nc3cccc(Cl)c3C)cc(NC(=O)c3ccccc3C(F)(F)F)cc2[nH]1
B = COCc1nc2c(C(=O)Nc3cccc(Cl)c3C)cc(NC(=O)c3cc(C)ccc3Cl)cc2[nH]1 [Example 108, hydrochloride]
Identify the entry with the larger pIC50. Options: A and B Lab log: write the label of the selected item as the result.
A
(A: 8.57, B: 7.94)

A = COCc1nc2c(C(=O)Nc3cccc(Cl)c3C)cc(NC(=O)c3cc(Cl)ccc3Cl)cc2[nH]1 [Example 99, hydrochloride]
B = COCc1nc2c(C(=O)Nc3cccc(Cl)c3C)cc(NC(=O)c3c(Cl)cncc3Cl)cc2[nH]1 [Example 246, hydrochloride]
Select one. Lower pIC50: A or B Write down the label of the entry you select.
B
(B: 7.44, A: 8.43)

P = Cc1c(Cl)cccc1NC(=O)c1cc(NC(=O)c2cc(Cl)ccc2Cl)cc2[nH]c(NCC(C)(C)CO)nc12 [Example 189, hydrochloride]
Q = COC(C)(C)CNc1nc2c(C(=O)Nc3cccc(Cl)c3C)cc(NC(=O)c3cc(Cl)ccc3Cl)cc2[nH]1 [Example 192, hydrochloride]
Between P and Q , which one shows the smaller pIC50 number? Indicate which entry you chose by stating its label.
Q
(Q: 8.00, P: 8.85)

* * *

Where a name gives a salt, the structure may show the parent alone.
These compounds were tested on human mPGES-1 (Homo sapiens (Human), UniProt O14684); IC50 is the recorded read-out.
experimental endpoint: IC50 (nM)

* Cc1c(Cl)cccc1NC(=O)c1cc(NC(=O)c2cc(Cl)ccc2Cl)cc2[nH]c(NCCOC(C)C)nc12 [Example 193, hydrochloride] | 0.4
* Cc1c(Cl)cccc1NC(=O)c1cc(NC(=O)c2ccccc2C(F)(F)F)cc2[nH]c(N(CCO)CCO)nc12 [Example 144, hydrochloride] | 9.7
* Cc1c(Cl)cccc1NC(=O)c1cc(NC(=O)c2ccccc2C(F)(F)F)cc2[nH]c(Cl)nc12 | 0.3

a = Cc1c(Cl)cccc1NC(=O)c1cc(NC(=O)c2ccccc2C(F)(F)F)cc2[nH]c(C(C)(C)CCl)nc12
b = COC(C)(C)CNc1nc2c(C(=O)Nc3cccc(Cl)c3C)cc(NC(=O)c3c(F)cccc3Cl)cc2[nH]1 [Example 197, hydrochloride]
c = Cc1c(Cl)cccc1NC(=O)c1cc(NC(=O)c2ccccc2C(F)(F)F)cc2[nH]c(NCCN3CCCC3)nc12 [Example 152, hydrochloride]
Hi! Can you put these in order of IC50, lowest number first? Please, when replying, give the labels in the order that was requested.
a, b, c

I = O=C(Nc1cc(C(=O)NCc2ccccc2C(F)(F)F)c2nc([C@H]3CCCO3)[nH]c2c1)c1ccccc1C(F)(F)F
II = CCNc1nc2c(C(=O)Nc3cccc(Cl)c3C)cc(NC(=O)c3ccccc3C(F)(F)F)cc2[nH]1 [Example 139, hydrochloride]
Could you determine which record has the numerically smaller IC50? Candidates: I and II Lab note: record the label of whichever item you select.
II
(II: 1.9 nM, I: 9.6 nM)

a = Cc1c(Cl)cccc1NC(=O)c1cc(NC(=O)c2c(Cl)cccc2Cl)cc2[nH]c([C@H]3CCCO3)nc12 [Example 128, hydrochloride]
b = CCOCc1nc2c(C(=O)Nc3cccc(Cl)c3C)cc(NC(=O)c3ccccc3C(F)(F)F)cc2[nH]1 [Example 79, hydrochloride]
Of the two listed items, a and b , which carries the larger IC50 figure? Bench note: the answer is the label of the chosen record.
b

* * *

target: human mPGES-1 (Homo sapiens (Human))
pIC50: −log10 of the molar value. Structures can show the parent of a compound that is named as a salt.
experimental endpoint: pIC50

- COCc1nc2c(C(=O)NCc3ccccc3)cc(NC(=O)c3ccccc3C(F)(F)F)cc2[nH]1 [Example 217, hydrochloride]: 7.57
- COCc1nc2c(C(=O)Nc3c(C)cccc3Cl)cc(NC(=O)c3ccccc3C(F)(F)F)cc2[nH]1 [Example 43, hydrochloride]: 7.15
- COCc1nc2c(C(=O)Nc3ccc(C)c(C)c3)cc(NC(=O)c3ccccc3C(F)(F)F)cc2[nH]1 [Example 31, hydrochloride]: 8.39
- COCc1nc2c(C(=O)Nc3ccc4c(c3)S(=O)(=O)C=C4)cc(NC(=O)c3ccccc3C(F)(F)F)cc2[nH]1 [Example 222, hydrochloride]: 6.18
- COCc1nc2c(C(=O)Nc3cccc(Cl)c3C)cc(NC(=O)c3cc(C)ccc3C(F)(F)F)cc2[nH]1 [Example 109, hydrochloride]: 8.11

A = Cc1c(Cl)cccc1NC(=O)c1cc(NC(=O)c2ccccc2C(F)(F)F)cc2[nH]c(NCC(C)(C)CN(C)C)nc12 [Example 154, hydrochloride]
B = COCc1nc2c(C(=O)Nc3cccc(Cl)c3C)cc(NC(=O)c3cccc(F)c3Cl)cc2[nH]1 [Example 100, hydrochloride]
Response body: label of entry with the larger pIC50; valid values A , B . Please identify the chosen entry by its label.
A
(A: 7.70, B: 7.48)

1 = COCCNc1nc2c(C(=O)Nc3cccc(Cl)c3C)cc(NC(=O)c3ccccc3C(F)(F)F)cc2[nH]1 [Example 136, hydrochloride]
2 = Cc1c(Cl)cccc1NC(=O)c1cc(NC(=O)c2ccccc2C(F)(F)F)cc2[nH]c(CC(N)=O)nc12 [Example 44, hydrochloride]
Rank 1 against 2 by their pIC50 values and give the higher one. Could you answer with the label of the item you picked?
1
(1: 8.62, 2: 8.39)
